Test: Stability in human plasma after 2 hrs by RP-HPLC method
Format: ADME, cell-free
Starred links: 1 amine or outer side, 2 acyl side, 3 side chain; linkers in the order of their positions; H or OH if unused. Non-standard residues stand in square brackets, D forms with d. Residues, ends and D or L forms follow the SMILES beside them. Groups on a side chain read outwards from the residue. εLys = N[C@@H](CCCCN[*:1])C(=O)[*:2]

compound	Stability
CC(C)C[C@H](NC(=O)[C@H](CC(C)C)NC(=O)[C@H](CCCCN)NC(=O)[C@H](CC(C)C)NC(=O)[C@H](CC(C)C)NC(=O)[C@H](CCCCN)NC(=O)[C@@H](N)CCCCNC(=O)[C@H](CC(C)C)NC(=O)[C@H](CC(C)C)NC(=O)[C@H](CCCCN)NC(=O)[C@H](CCCCN)NC(=O)[C@H](CC(C)C)NC(=O)[C@H](CC(C)C)NC(=O)[C@H](CCCCN)NC(=O)[C@@H](N)CC(C)C)C(N)=O (H-LKLLKKLL[εLys]KLLKLL-NH2)	Stable
CC(C)C[C@H](NC(=O)[C@H](CC(C)C)NC(=O)[C@H](CCCCN)NC(=O)[C@H](CC(C)C)NC(=O)[C@H](CC(C)C)NC(=O)[C@H](CCCCN)NC(=O)[C@H](CCCCN)NC(=O)[C@H](CC(C)C)NC(=O)[C@H](CC(C)C)NC(=O)[C@H](CCCCN)NC(=O)[C@H](CCCCN)NC(=O)[C@H](CC(C)C)NC(=O)[C@H](CC(C)C)NC(=O)[C@H](CCCCN)NC(=O)[C@@H](N)CC(C)C)C(N)=O (H-LKLLKKLLKKLLKLL-NH2)	Stable
CC(C)C[C@H](NC(=O)[C@H](CC(C)C)NC(=O)[C@H](CCCCN)NC(=O)[C@H](CC(C)C)NC(=O)[C@H](CC(C)C)NC(=O)[C@H](CCCCN)NC(=O)[C@H](CCCCN)NC(=O)[C@H](CC(C)C)NC(=O)[C@H](CC(C)C)NC(=O)[C@H](CCCCN)NC(=O)[C@@H](N)CCCCNC(=O)[C@H](CC(C)C)NC(=O)[C@H](CC(C)C)NC(=O)[C@H](CCCCN)NC(=O)[C@@H](N)CC(C)C)C(N)=O (H-K([Leu-Leu-Lys-Leu])KLLKKLLKLL-NH2)	Stable

----------
Tested on: HEK293
Assay: Cytotoxicity against HEK293 cells assessed as reduction in cell viability at 10 to 100 uM incubated for 24 hrs by XTT assay
Format: toxicity, cell-based
Conditions: human, hek293, 24 h, dose 10-100 µM
Positions of bridges follow the written chain, without caps; N, C: chain ends. Residues, ends and D or L forms follow the SMILES beside them. Groups on a side chain read outwards from the residue. Chains are numbered I, II in the order given.

molecule	studyTarget	Activity
CC(C)C[C@H](NC(=O)[C@H](CC(C)C)NC(=O)[C@H](CCCCN)NC(=O)[C@H](CC(C)C)NC(=O)[C@H](CC(C)C)NC(=O)[C@H](CCCCN)NC(=O)[C@H](CCCCN)NC(=O)[C@H](CC(C)C)NC(=O)[C@H](CC(C)C)NC(=O)[C@H](CCCCN)NC(=O)[C@@H](N)CCCCNC(=O)[C@H](CC(C)C)NC(=O)[C@H](CC(C)C)NC(=O)[C@H](CCCCN)NC(=O)[C@@H](N)CC(C)C)C(N)=O (H-K([Leu-Leu-Lys-Leu])KLLKKLLKLL-NH2)	HEK293	Toxic
CC(C)C[C@H](NC(=O)[C@H](CC(C)C)NC(=O)[C@H](CCCCN)NC(=O)[C@H](CC(C)C)NC(=O)[C@H](CC(C)C)NC(=O)[C@H](CCCCN)NC(=O)[C@H](CCCCN)NC(=O)[C@H](CC(C)C)NC(=O)[C@H](CC(C)C)NC(=O)[C@@H](N)CCCCNC(=O)[C@H](CCCCN)NC(=O)[C@H](CC(C)C)NC(=O)[C@H](CC(C)C)NC(=O)[C@H](CCCCN)NC(=O)[C@@H](N)CC(C)C)C(N)=O (I: H-KLLKKLLKLL-NH2 / II: H-LKLLK; amide I:1-II:C)	HEK293	Toxic
